- Tested on: proteins that co-immunoprecipitated with DUX4-CTD constructs expressed in MB135 myoblasts
- Assay protocol: LC-MS of proteins co-immunoprecipitated with DUX4-CTD (Table 1) and western validation
- Assay type: binding, human
- Recorded conditions: sum over all samples
Test readout: SUM of PSMS
A bare number is all that is needed in reply.

INSERT INTO measurements (molecule, reported_value) VALUES
  ('P11802 (protein, UniProt P11802 1-303, looked up, full-length) MATSRYEPVAEIGVGAYGTVYKARDPHSGHFVALKSVRVPNGGGGGGGLPISTVREVALLRRLEAFEHPNVVRLMDVCATSRTDREIKVTLVFEHVDQDLRTYLDKAPPPGLPAETIKDLMRQFLRGLDFLHANCIVHRDLKPENILVTSGGTVKLADFGLARIYSYQMALTPVVVTLWYRAPEVLLQSTYATPVDMWSVGCIFAEMFRRKPLFCGNSEADQLGKIFDLIGLPPEDDWPRDVSLPRGAFPPRGPRPVQSVVPEMEESGAQLLLEMLTFNPHKRISAFRALQHSYLHKDEGNPE', 16),
  ('P06702 (protein, UniProt P06702 1-114, looked up, full-length) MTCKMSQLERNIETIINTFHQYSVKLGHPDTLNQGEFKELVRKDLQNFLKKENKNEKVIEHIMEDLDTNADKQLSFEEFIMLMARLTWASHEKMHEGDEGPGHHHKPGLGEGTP', 4);

Let us examine a further case.
Request: Bench note: what SUM of PSMS did A0A087WW87 (protein, UniProt A0A087WW87 1-121, looked up, full-length) MRLPAQLLGLLMLWVPGSSEDIVMTQTPLSLPVTPGEPASISCRSSQSLLDSDDGNTYLDWYLQKPGQSPQLLIYTLSYRASGVPDRFSGSGSGTDFTLKISRVEAEDVGVYYCMQRIEFP show?
Result: 15
